- MEASURED TARGET: feline CaSR (Felis catus)
- PROTOCOL: HEK T-Rex/natClytin-fCaSR luminescence assay, activation of feline CaSR
- Format: cell-based
Where a SMILES comes first, the peptide text is derived from it.
OBSERVATION TYPE: EC50 (mM)
State the answer as a number, implicitly in mM.

Use the examples below as a reference point.
>  <COMPOUND>
CC(C)C(NC(=O)C(N)CC(=O)O)C(=O)NC(CC(=O)O)C(=O)O (stereo not drawn) [Asp-Val-Asp] (H-Asp-Val-Asp-OH; configuration not given here)

>  <EC50 / mM>
3.41

$$$$
>  <COMPOUND>
CC(C)C(NC(=O)C(N)CCC(=O)O)C(=O)NC(CCC(=O)O)C(=O)O (stereo not drawn) [Glu-Val-Glu] (H-Glu-Val-Glu-OH; configuration not given here)

>  <EC50 / mM>
3.54

$$$$
>  <COMPOUND>
CC(C)C(NC(=O)C(N)CC(=O)O)C(=O)NC(CCC(=O)O)C(=O)O (stereo not drawn) [BC 01, Asp-Val-Glu] (H-Asp-Val-Glu-OH; configuration not given here)

>  <EC50 / mM>
3.3

$$$$

Give the measured EC50 of CC(C)[C@H](NC(=O)CC[C@H](N)C(=O)O)C(=O)NCC(=O)O [γ-Glu-Val-Gly, reference compound] .
5.78

Give the measured EC50 of CC(NC(=O)C(N)CC(=O)O)C(=O)NC(CCC(=O)O)C(=O)O (stereo not drawn) [Asp-Ala-Glu] (H-Asp-Ala-Glu-OH; configuration not given here) .
3.54

Give the measured EC50 of CC(C)C(NC(=O)C(N)CCC(=O)O)C(=O)NC(CC(=O)O)C(=O)O (centres unmarked) .
3.32

###

- MEASURED TARGET: feline CaSR (Felis catus, UniProt A0ABI7YY68)
- Sequence (A0ABI7YY68 entry or part of it): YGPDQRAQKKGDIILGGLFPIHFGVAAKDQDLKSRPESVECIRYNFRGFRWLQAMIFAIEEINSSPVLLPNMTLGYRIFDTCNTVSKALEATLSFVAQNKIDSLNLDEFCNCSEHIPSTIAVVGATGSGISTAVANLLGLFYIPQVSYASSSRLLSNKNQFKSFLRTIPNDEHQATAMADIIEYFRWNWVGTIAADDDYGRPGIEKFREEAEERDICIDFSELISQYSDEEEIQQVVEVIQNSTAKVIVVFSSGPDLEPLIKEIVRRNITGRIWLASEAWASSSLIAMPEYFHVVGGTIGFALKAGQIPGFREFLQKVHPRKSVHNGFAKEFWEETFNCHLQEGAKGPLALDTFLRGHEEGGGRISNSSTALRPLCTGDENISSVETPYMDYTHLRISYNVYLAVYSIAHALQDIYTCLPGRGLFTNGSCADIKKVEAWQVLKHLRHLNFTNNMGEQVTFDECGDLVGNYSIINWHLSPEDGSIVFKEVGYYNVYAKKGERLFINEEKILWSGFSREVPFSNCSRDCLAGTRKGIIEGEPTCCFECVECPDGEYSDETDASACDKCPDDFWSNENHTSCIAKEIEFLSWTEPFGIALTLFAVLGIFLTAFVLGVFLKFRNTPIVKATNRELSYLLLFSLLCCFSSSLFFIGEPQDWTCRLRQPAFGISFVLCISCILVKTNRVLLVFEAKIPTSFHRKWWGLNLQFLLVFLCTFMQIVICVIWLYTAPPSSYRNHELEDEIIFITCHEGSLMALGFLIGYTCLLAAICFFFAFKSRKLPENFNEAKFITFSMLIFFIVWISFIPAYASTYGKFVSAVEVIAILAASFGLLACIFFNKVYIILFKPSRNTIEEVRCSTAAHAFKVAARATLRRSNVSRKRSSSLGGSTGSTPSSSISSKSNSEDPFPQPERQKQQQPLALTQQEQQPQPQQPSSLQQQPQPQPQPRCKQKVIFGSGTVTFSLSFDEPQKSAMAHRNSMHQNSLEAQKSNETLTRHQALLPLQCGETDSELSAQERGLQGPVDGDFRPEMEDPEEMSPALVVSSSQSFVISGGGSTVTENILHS
- PROTOCOL: HEK T-Rex/natClytin-fCaSR luminescence assay, activation of feline CaSR
- Format: cell-based
- STATED CONDITIONS: HEK T-Rex/natClytin-fCaSR cells, calcium-free Tyrode's buffer; ≈ values are model estimates without standard error; read-out: EC50 ± Std Error
Where a SMILES comes first, the peptide text is derived from it. [ ]: non-standard residue; d: D form. pS = N[CH](COP(=O)(O)O)C(=O)O
Readings of EC50 for the listed compounds
State the answer as a number, implicitly in mM.

>  <COMPOUND>
[Cl-].[Cl-].[Mg+2] [MgC12, reference compound]

>  <OBS VALUE>
6.72

$$$$

Proceed to the following item.
Give the measured EC50 of NC(COP(=O)(O)O)C(=O)NC(CCC(=O)O)C(=O)NC(COP(=O)(O)O)C(=O)O (stereo not drawn) [pSer-Glu-pSer] (H-[pS]-Glu-[pS]-OH; configuration not given here) .
3.04

###

Readings of EC50 for the listed compounds
- MEASURED TARGET: UniProt A0ABI7YY68
- PROTOCOL: HEK T-Rex/natClytin-fCaSR luminescence assay, activation of feline CaSR
- Format: cell-based
- STATED CONDITIONS: HEK T-Rex/natClytin-fCaSR cells, calcium-free Tyrode's buffer; ≈ values are model estimates without standard error; read-out: EC50 ± Std Error
Where a SMILES comes first, the peptide text is derived from it. [ ]: non-standard residue; d: D form. pT = C[CH](OP(=O)(O)O)[CH](N)C(=O)O

Give the measured EC50 of [Ca+2].[Cl-].[Cl-] [CaC12, CaCl2, reference compound] .
1.6 mM

Give the measured EC50 of N[C@@H](CCC(=O)N[C@@H](Cc1ccccc1)C(=O)O)C(=O)O [γ-Glu-Phe, reference compound] .
~7.8 mM

Give the measured EC50 of CC(OP(=O)(O)O)C(N)C(=O)NC(CCC(=O)O)C(=O)NC(C(=O)O)C(C)OP(=O)(O)O (stereo not drawn) [pThr-Glu-pThr] (H-[pT]-Glu-[pT]-OH; configuration not given here) .
1.98 mM
